B1: Pistol ribozyme (parent)
chain: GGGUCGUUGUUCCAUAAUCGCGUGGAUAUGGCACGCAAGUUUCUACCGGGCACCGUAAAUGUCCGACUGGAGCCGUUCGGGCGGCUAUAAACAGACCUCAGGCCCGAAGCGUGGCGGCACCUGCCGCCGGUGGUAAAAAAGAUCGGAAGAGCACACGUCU

- Variants of: B1
- assay_overview: aptazyme ON/OFF ratio, guanine; higher = stronger switching; co-transcriptional cleavage with and without guanine
Items are presented alongside their recorded aptazyme ON/OFF ratio.
observed_property: aptazyme ON/OFF ratio

• U7C U8A G9A C12A C13U = 1.15
• U7G U8G G9C U10G = 1.74
• U7A U8A G9C U10A U11C C13A = 1.07
• U7C U8C U10A U11A C12U C13U = 1.16
• G9A U10C U11C C12U C13G = 1.04
• U7C U8G G9C U10C C13U = 1.71
• U7G U8G G9A U10C U11G C13G = 1.28
• U10G U11C C13A = 1.05
• U7A U8C U11G C12G C13G = 1.1
• U8G G9C U10C U11C C12G C13A = 1.11
• U7A U10A C12A C13U = 1.39
• U7C U8C G9A U11A C12A C13A = 1.43
• U7G U8A G9A U10A U11C C12A C13G = 1.12
• U7A U8C U10G = 1.47
• U7C U8C G9A U10A U11A C13U = 1.25
• U7G G9C U10C U11C C12G C13G = 1.05
• U8A G9A U11C C12G C13U = 1.22
• U7A G9A U10C C12U C13U = 1.2
• U7G U8C G9C U11G C12G = 1.07
• U7A U8G G9A U10A U11C C12G C13G = 1.08
• U7A U8C G9C U10A U11A C12G C13G = 1.08
• U8A G9U U10C U11G C12U C13G = 1.14
• U7C U8G G9C U10A C13A = 1.14
• U7G U8A G9C U11C C12U = 1.11
• U7C U8G G9A U10A U11G C12G C13G = 1.39
• U7G G9C U10G U11C C12G C13U = 1.21
• U7A U8A G9A U10G U11A C13U = 0.974
• U7A U8G G9A U10G U11C C12A C13G = 1.36
• U8A G9C U10C C12A C13G = 1.08
• U7C U8G G9C U11G C13U = 1.15
• U7C U8G G9C U11G C12G C13A = 1.13
• U7A U8G G9U U11C = 1.45
• U7C U8A U10C U11C C12U C13G = 1.05
• U7A G9A U10G U11C C13G = 1.11
• U7C U8A U10G U11A C12A C13A = 1.14
• U7C U8A G9U U10A U11A C12G = 1.17
• U7G U8C G9C U11G C12A C13A = 1.14
• U7A U8G G9C U10C U11C C12A C13A = 1.01
• U7A U8C G9A U10C C12G C13G = 1.16
• U8C U10G U11G = 1.26
• U7G G9A U11C C12U C13G = 1.19
• U7C U8A G9C U11G C12A = 1.06
• G9C U10C U11G C12G C13A = 1.04
• U7A G9U U10G U11G C12G C13G = 1.4
• U7A U8A U10G U11A C13U = 1.15
• U7A C13G = 1.11
• U7C U8G G9C U10A C12U C13G = 1.13
• U7A U8C U10C U11A C12G = 1.28
• U7G U8G G9U U10G U11A C12U C13U = 1.2
• U7A G9U U10A U11A C13U = 1.16
• U7G U8C G9U U10G U11G C12G = 1.31
• U7G U8G G9A U10A U11C = 1.02
• U8C G9C U10G C12U C13U = 1.28
• U7G U8A U10G U11G C12G C13A = 1.15
• U7G U8G U10G U11C C12U = 1.24
• U7C G9A U10A U11C C13A = 1.03
• U7G U8G G9A U10G U11A C12U C13A = 1.15
• U8G G9U U10G C12G = 1.02
• U7A G9C U11G = 1.41
• U7A U8C G9U U10A U11A C12G C13G = 1.2
• U10A U11C C13A = 1.02
• U7G G9A U10A = 3.3
• U7C G9U U11G C12G C13U = 1.1
• U7G U8C U10C C12U = 3.24
• U7A U8C G9A U10G U11A C12G C13U = 1.3
• U7A U8C G9A U10A C12G C13G = 1.25
• U7G U8C U10G U11G C12A = 1.18
• U7G U8A U10C U11C C12G C13U = 1.3
• U8A U10G C13U = 1.18
• U7G G9C U10C U11C C13A = 1.05
• U7C U8A G9C C12U C13U = 1.19
• U7A U8A G9A U10A U11C C12U = 1.02
• U7G G9C U11G C13A = 1.29
• U7C U8C G9A U10C U11C C13G = 1.21
• U7G U8C G9C U10G U11C C12U C13G = 1.32
• U7A U8C U10G U11G C12G = 1.04
• G9U U10A U11A C12A C13A = 1.37
• U7C G9U U10C = 2.79
• U7C U8A G9U U10G C13G = 1.08
• U7G U8G G9C U10C U11C C12A = 1.09
• U7G G9C U10C U11A C13G = 1.22
• U7G U8C U10A U11C C12U C13A = 1.13
• G9U U10A = 3.18
• U8A U10G U11C C13A = 1.06
• U7G U8G G9U U10C U11A C12A = 1.28
• U7G U8C G9C U10C U11A C12G C13U = 1.12
• U8A G9C U10A U11G C12U C13U = 1.14
• U7A U8A U10A U11A C12A = 1.18
• U7G G9C U10A C13U = 1.16
• U7G U8A G9C U10A U11A C12U = 1.03

Hello, the source for this data is the RNAGym collection of RNA variant scans (doi:10.1021/acssynbio.7b00057), in case you need it.
